Just for reference, PubChem BioAssay AID1259407 is where these values come from.

Test system: CCRIS mutagenicity, Ames/micronucleus/aberration tests
Assay: CCRIS mutagenicity studies
Details: Test System: AMES SALMONELLA TYPHIMURIUM; Strain/Indicator: TA98; Metabolic Activation: RAT, LIVER, S-9, KC500 OR PHENOBARBITAL; Method: LIQUID SUSPENSION
Calls of active or inactive are those of the source. The rule behind the calls is not given here.
readoutName: mutagenic call

COc1cc2c(c3oc4cccc(O)c4c(=O)c13)[C@@H]1C=CO[C@@H]1O2
active; positive
c1ccc2ncccc2c1
active; positive
CCN(CC)CCNc1ccc(CO)c2sc3ccccc3c(=O)c12
active; positive
CN(C)c1ccc(/C=C/c2ccccc2)cc1
active; positive

###

Tested on: CCRIS mutagenicity, Ames/micronucleus/aberration tests
Assay: CCRIS mutagenicity studies
Settings: Test System: Mouse lymphoma; Strain/Indicator: L5178Y (tk+/tk-); Metabolic Activation: None; Method: Suspension/plate
Active and inactive are the calls of the source. How the calls were made is not given here.
Allowed answers: t for active, f for inactive

Dear colleague, could you share the recorded outcome for `Oc1ccccc1-c1ccccc1` when you have a moment?
f

Dear colleague, could you share the recorded outcome for `Cl[Si](Cl)Cl` when you have a moment?
f

Dear colleague, could you share the recorded outcome for `C=C1C[C@@H]2CC[C@]34C[C@@H]5O[C@@H]6[C@H](O[C@H]7CC[C@H](CC(=O)O[C@@H]8[C@H](C)[C@@H]9O[C@@H]%10C[C@]%11(C[C@@H]%12O[C@@]%13(C[C@H](C)[C@@H]%12O%11)C[C@H](C)[C@@H]%11O[C@@H]([C@@H](O)C[C@H](O)CO)C[C@H]%11O%13)O[C@@H]%10C[C@@H]9O[C@H]8C[C@@H]8O[C@H](CC[C@@H]1O2)C[C@H](C)C8=C)O[C@@H]7[C@H]6O3)[C@H]5O4` when you have a moment?
f

Dear colleague, could you share the recorded outcome for `CCN(CC)c1ccc(C(=C2C=CC(=[N+](CC)CC)C=C2)c2ccc(N(CC)CC)cc2)cc1` when you have a moment?
f

Dear colleague, could you share the recorded outcome for `CN(C)c1ccc(/C=C/c2ccccc2)cc1` when you have a moment?
f

Dear colleague, could you share the recorded outcome for `O=c1cc(-c2ccc(O)cc2)oc2cc(O)cc(O)c12` when you have a moment?
t

Dear colleague, could you share the recorded outcome for `CN(CC(N)=O)C(=O)N(CCCl)N=O` when you have a moment?
t

Dear colleague, could you share the recorded outcome for `[O]=[Mo](=[O])=[O]` when you have a moment?
f

Dear colleague, could you share the recorded outcome for `O=C1C(c2[nH]c3ccc(S(=O)(=O)O)cc3c2O)=Nc2ccc(S(=O)(=O)O)cc21` when you have a moment?
f

Dear colleague, could you share the recorded outcome for `CN(C)c1ccc(CCO)cc1` when you have a moment?
f

###

Test system: CCRIS mutagenicity, Ames/micronucleus/aberration tests
Test: CCRIS mutagenicity studies
Conditions: Test System: AMES SALMONELLA TYPHIMURIUM; Strain/Indicator: TA1535; Metabolic Activation: RAT, LIVER, S-9, AROCLOR 1254; Method: STANDARD PLATE
Source text: The CCRIS database contains chemical records with carcinogenicity, mutagenicity, tumor promotion, and tumor inhibition test results. It was developed by the National Cancer Institute (NCI). Data are derived from studies cited in primary journals, current awareness tools, NCI reports, and other sources. Test results have been reviewed by experts in carcinogenesis and mutagenesis. CCRIS provides historical information from the years 1985 - 2011. It is no longer updated. […]
Activity calls are given as the source filed them. No rule for the calls is given here.
Allowed answers: Y for active, N for inactive

Dear colleague, could you share the recorded outcome for `Nc1ccc(O)c([N+](=O)[O-])c1` when you have a moment?
N

Dear colleague, could you share the recorded outcome for `O=C1c2ccccc2CCc2ccccc21` when you have a moment?
N

Dear colleague, could you share the recorded outcome for `C[C@]12CC[C@H](OC(=O)/C=C/c3cccc(N(CCCl)CCCl)c3)C[C@@H]1CC[C@@H]1[C@@H]2CC[C@]2(C)NC(=O)CC[C@@H]12` when you have a moment?
N

Dear colleague, could you share the recorded outcome for `CC(C)[C@@H]1CC[C@@H](C)C[C@H]1O` when you have a moment?
N

Dear colleague, could you share the recorded outcome for `O=C(CCCN1CCC(O)(c2ccc(Cl)cc2)CC1)c1ccc(F)cc1` when you have a moment?
N

Dear colleague, could you share the recorded outcome for `O=C(O)C[C@H](NC(=O)COc1cc(Cl)c(Cl)cc1Cl)C(=O)O` when you have a moment?
N

Dear colleague, could you share the recorded outcome for `Cc1ccc(N=Cc2cccc3cccnc23)c(C(=O)O)c1` when you have a moment?
N

Dear colleague, could you share the recorded outcome for `O=c1[nH]c2ccccc2n1C1CCN(CCCC(c2ccc(F)cc2)c2ccc(F)cc2)CC1` when you have a moment?
N

Dear colleague, could you share the recorded outcome for `C[C@H]1[C@H](C)CC[C@]2(C(=O)O[C@@H]3O[C@H](CO[C@@H]4O[C@H](CO)[C@@H](O[C@@H]5O[C@@H](C)[C@H](O)[C@@H](O)[C@H]5O)[C@H](O)[C@H]4O)[C@@H](O)[C@H](O)[C@H]3O)CC[C@]3(C)C(=CC[C@@H]4[C@@]5(C)C[C@@H](O)[C@H](O)[C@@](C)(CO)[C@@H]5CC[C@]43C)[C@H]12` when you have a moment?
N

Dear colleague, could you share the recorded outcome for `O=C(OCc1ccccc1)c1cccc2cccnc12` when you have a moment?
N

Dear colleague, could you share the recorded outcome for `COc1cc(N)c([N+](=O)[O-])cc1N` when you have a moment?
N

Dear colleague, could you share the recorded outcome for `CNc1ccc(N(CCO)CCO)cc1[N+](=O)[O-]` when you have a moment?
N

Dear colleague, could you share the recorded outcome for `O=S(=O)(Nc1ccc(Cl)cc1)c1cccc2cccnc12` when you have a moment?
N

Dear colleague, could you share the recorded outcome for O=C1C=C[C@]2(O)c3c(ccc(O)c31)-c1ccc(O)c3c1[C@H]2C1OC1C3=O (stereo partly specified) when you have a moment?
N

Dear colleague, could you share the recorded outcome for `O=S(=O)(Nc1ccc(Cl)cc1Cl)c1cccc2cccnc12` when you have a moment?
N

Dear colleague, could you share the recorded outcome for `NCc1cccc(CN)c1` when you have a moment?
N

Dear colleague, could you share the recorded outcome for OCC(Cl)CCl (stereo unspecified) when you have a moment?
Y

Dear colleague, could you share the recorded outcome for `Nc1c(S(=O)(=O)O)cc(NC2CCCCC2)c2c1C(=O)c1ccccc1C2=O` when you have a moment?
N

Dear colleague, could you share the recorded outcome for CCc1cccc2c3c([nH]c12)C(CC)(CC(=O)O)OCC3 (stereo unspecified) when you have a moment?
N

Dear colleague, could you share the recorded outcome for `O=c1cc(-c2ccc(O)cc2)oc2cc(O)cc(O)c12` when you have a moment?
N

Dear colleague, could you share the recorded outcome for `O=C(Cl)c1ccc([N+](=O)[O-])cc1` when you have a moment?
N
